Target: CX3CR1 (Homo sapiens (Human))
Sequence (P49238 whole entry): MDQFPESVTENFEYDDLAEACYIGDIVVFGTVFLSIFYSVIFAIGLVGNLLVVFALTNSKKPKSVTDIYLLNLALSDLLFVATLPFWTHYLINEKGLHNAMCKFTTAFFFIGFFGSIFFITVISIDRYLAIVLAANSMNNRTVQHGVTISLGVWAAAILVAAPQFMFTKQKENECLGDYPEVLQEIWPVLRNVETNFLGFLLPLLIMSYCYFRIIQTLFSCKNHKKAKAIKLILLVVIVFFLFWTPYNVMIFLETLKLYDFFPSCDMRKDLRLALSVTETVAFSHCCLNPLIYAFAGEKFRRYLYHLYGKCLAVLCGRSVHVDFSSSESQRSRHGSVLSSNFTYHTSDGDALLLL
Assay: hCX3CR1 [3H]-AZD8797 competitive binding assay (filter)
Conditions: CHO-hCX3CR1 membranes, 2 nM [3H]-AZD8797
Readout Label: log10(IC50) (log10 of the value in nM)
Remember, log10 of IC50, in nM.

Batch lookup, log10(IC50) per entry.
1. CC(C)C[C@H](CO)Nc1nc(C[C@@H](C)c2ccc(F)cc2)nc(NS(C)(=O)=O)n1 (single isomer, unassigned)
2. CC(C)C[C@H](CO)Nc1nc(CC(C)c2ccc(F)c(CO)c2)nc(NS(C)(=O)=O)n1 (stereo partly shown)
3. CNC(=O)c1ccc(C(C)Cc2nc(N[C@@H](CO)CC(C)C)nc(NS(C)(=O)=O)n2)cc1F (stereo partly shown)
4. CC(C)C[C@H](CO)Nc1nc(CC(C)c2cccc3c2NC(=O)C3)nc(NS(C)(=O)=O)n1 (stereo partly shown)
5. CC(C)C[C@H](CO)Nc1nc(CC(C)c2ccc3c(c2)CC(=O)N(C)C3)nc(NS(C)(=O)=O)n1 (stereo partly shown)
6. COc1ncc([C@@H](C)Cc2nc(N[C@@H](CO)CC(C)C)nc(NS(C)(=O)=O)n2)cc1Cl (single isomer, unassigned)

-- reply
1. 2.30
2. 2.08
3. 2.36
4. 3.72
5. 2.38
6. 2.96

# credit: patent US20240199558A1
